# assay: Water retention property test 2 (hydrates)
# Type: physicochemical
# measurement-context: hydrate (anhydrides: aqueous solution at mono- to trihydrate concentration); unsealed, 24 hours at 40° C. and 25% RH
test-readout: Post-test moisture rate (%)
Express it in %; write the number only.

>  <compound>
CC(O)C(=O)O.NC(CO)CO (stereo not shown)

>  <test-readout>
Post-test moisture rate

>  <result-value>
16.1

$$$$

### Prompt I am curious: what Post-test moisture rate value has been reported for CCCC[N+](CCCC)(CCCC)CCCC.[Br-] [Comparative example C5] ?
### Response 8.6

### Prompt Field entry: `O=C1O[C@H]([C@@H](O)CO)C(O)=C1O.OCCNCCO`
### Response 11.0

### Prompt Follow-up entry: `CC[N+](C)(C)CCO.CS(=O)(=O)[O-]`
### Response 7.7

### Prompt Next compound up: `NC(CO)CO.O=C1O[C@H]([C@@H](O)CO)C(O)=C1O`
### Response 11.7

### Prompt Now consider `C[N+](C)(C)CCO.O=C([O-])CCC(=O)O` and answer again.
### Response 7.1

### Prompt Follow-up entry: `O=C(O)CCC(=O)O.OCCNCCO`
### Response 13.1

### Prompt Next up: `Cl.NC(CO)CO`
### Response 19.7

### Prompt Consider next the compound CC(O)C(=O)[O-].CCCC[N+](CCCC)(CCCC)CCCC [Working example C100] in the same way.
### Response 4.9

### Prompt Let us now turn to `CS(=O)(=O)[O-].C[N+](C)(C)CCO`
### Response 8.1

### Prompt Ok, now CC(O)C(=O)[O-].CCCC[N+](CCCC)(CCCC)CCCC [Working example C102]
### Response 12.3

### Prompt Item: CCCCn1cc[n+](C)c1.F[B-](F)(F)F [Comparative example C8]
### Response 7.1

### Prompt What do we get for C[N+](C)(C)CCO.O=C1OC(C(O)CO)C([O-])=C1O (stereo not shown) ?
### Response 11.2

### Prompt Similarly, `CCC(N)(CO)CO.CS(=O)(=O)O` ?
### Response 14.2

### Prompt Input `CCC(N)(CO)CO.O=C(O)CC(O)(CC(=O)O)C(=O)O`
### Response 9.9
